experiment: MTT assay, in vitro toxicity against normal cells; format: cell-based; details: human, WI38 normal cells; MTT assay, WI38; read-out: IC50, in vitro cytotoxicity against WI38 normal cell line
Can you tell me IC50 for the items I'm about to list?
Please respond with the number in µM and leave the unit unwritten.

I am curious: what IC50 value has been reported for COc1cc2nccc(Oc3ccc(NC(=O)C4(C(=O)Nc5ccc(F)cc5)CC4)cc3)c2cc1OC [Cabozantinib, reference compound] ?
44.7

I am curious: what IC50 value has been reported for O=C(Cn1c(=O)[nH]c2ccccc2c1=O)NCC(=O)NN=C1CCCCC1 [Compound 4e] ?
10.6

I am curious: what IC50 value has been reported for O=C(Cn1c(=O)[nH]c2ccccc2c1=O)NCC(=O)N/N=C/c1ccc([N+](=O)[O-])cc1 [Compound 4b] ?
18.4

Values from paper PMC10026756
